Residues, ends and D or L forms follow the SMILES beside them. *: point of attachment. Boc = CC(C)(C)OC(=O)*; Bn = c1ccc(C*)cc1
Below, each entry is listed with its recorded melting point.

CCCCc1c(CC[Si](Cl)(Cl)Cl)c(CC[Si](Cl)(Cl)Cl)c(CC[Si](Cl)(Cl)Cl)c(CC[Si](Cl)(Cl)Cl)c1CC[Si](Cl)(Cl)Cl    228 to 235 °C
CC(NC(=O)C(Cc1ccc(OCc2ccccc2)cc1)NC(=O)C(COCc1ccccc1)NC(=O)C(Cc1c[nH]c2ccccc12)NC(=O)OC(C)(C)C)C(=O)O (centres undefined) (Boc-WS(Bn)Y(Bn)A-OH; configuration not given here)    93 to 94 °C
CC[C@H](C)CNC(=O)[C@@H](C[C@H](O)[C@H](CC1CCCCC1)NC(=O)[C@H](Cc1cscn1)NC(=O)[C@H](Cc1cccc2ccccc12)NC(=O)CN1CCOCC1)C(C)(C)O    141 to 143 °C

--- query ---
Which melting point value belongs to "O=[N+]([O-])c1ccc2cn[nH]c(=S)c2c1" ?
233 to 234 °C
